Measured protein stability index by item
B1: ATL3 (parent)
chain: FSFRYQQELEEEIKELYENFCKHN

Variants of: B1
testName: protein stability index of a GFP-peptide fusion (GPS, HEK-293T) (PSI 1-6); higher = more stable;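 also: lentivirally expressed fusions sorted by FACS into six bins by GFP to DsRed ratio, PSI derived from sequencing read proportions per bin multiplied by bin number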
particulars: c terminus: a fixed tail appended
Respond numerically, and do not add a unit to the figure.

Reference set, count: 5
   mutationstring            endpointlabel  measured
0             R4A  protein stability index      2.05
1            N19T  protein stability index      1.99
2            E11V  protein stability index      1.53
3            I13E  protein stability index       2.9
4            K22N  protein stability index      2.54

Q: Need protein stability index of "N19A" , thanks.
Ans: 2.28

Q: Now the variant "N19V"
Ans: 1.81

Q: Now the variant "L9V"
Ans: 2.11

Q: Now the variant "E18T"
Ans: 2.52
